tested on: rat aortic ring; test: Angiogenesis inhibitory activity in vitro, rat aortic ring model (microvessel formation); assay type: cell-based; details: 192 h, microvessel area following eight days in culture
pIC50: −log10 of the molar value.
This listing pairs compounds with measured pIC50.

item.smiles	subject.of.test	pIC50
Cc1nsc(-c2ccc(N3CCN(c4cccc(Br)c4)CC3)nn2)n1	rat aortic ring	9.30
Cc1nsc(-c2ccc(N3CCC(c4cc(C(F)(F)F)cc(C(F)(F)F)c4)CC3)nn2)n1	rat aortic ring	9.70
Cc1nsc(-c2ccc(N3CCC(N(C)Cc4cccc(C(F)(F)F)c4)CC3)nn2)n1	rat aortic ring	9.30
Cc1nsc(-c2ccc(N3CCC(Cc4cccc(C(F)(F)F)c4)CC3)nn2)n1	rat aortic ring	9.70

###

system: rat aortic ring; assay: Angiogenesis inhibitory activity in vitro, rat aortic ring model (microvessel formation); assay type: cell-based; settings: 192 h, microvessel area following eight days in culture

compound	IC50 [nM]
Cc1nsc(-c2ccc(N3CCC(C(O)c4cccc(C(F)(F)F)c4)CC3)nn2)n1 (stereo not shown)	0.6
Cc1nsc(-c2ccc(N3CCN(c4cc(Cl)cc(Cl)c4)CC3)nn2)n1	0.05
Cc1nsc(-c2ccc(N3CCC(N(C)c4cccc(C(F)(F)F)c4)CC3)nn2)n1	0.3
Cc1nsc(-c2ccc(N3CCN(c4cccc(Cl)c4)CC3)nn2)n1	0.6

###

Recorded pIC50 by entry
Tested on: rat aortic ring
Assay: Angiogenesis inhibitory activity in vitro, rat aortic ring model (microvessel formation)
Format: cell-based
Conditions: 192 h, microvessel area following eight days in culture
Description: Angiogenosis inhibitory activity was measured in vitro using the rat aortic ring model of angiogenesis as described by Nicosia, R. F. and Ottinetti in "Laboratory Investigation", vol. 63, p. 115, 1990. The ability of compounds to inhibit microvessel formation was compared to velicle-treatedcontrol rings.
pIC50: −log10 of the molar value.
reported.property: pIC50

molecule	reported.property	qualifier.operator	readout.value
Cc1nsc(-c2ccc(N3C4CCC3CC(c3cccc(C(F)(F)F)c3)C4)nn2)n1 (stereo not shown)	pIC50	=	9.15
Cc1nsc(-c2ccc(N3CCC(c4cccc(C(F)(F)F)c4)CC3)nn2)n1	pIC50	=	10.28
Cc1nsc(-c2ccc(N3CCN(c4cccc(Cl)c4)C(C)C3)nn2)n1 (stereo not shown)	pIC50	=	9.10
Cc1nsc(-c2ccc(N3CCN(c4ccc(Br)cc4[N+](=O)[O-])CC3)nn2)n1	pIC50	>	10.00

###

Overview of reported pIC50 across a group of molecules:
tested on: rat aortic ring; test: Angiogenesis inhibitory activity in vitro, rat aortic ring model (microvessel formation); format: cell-based; conditions: 192 h, microvessel area following eight days in culture
pIC50: −log10 of the molar value.
reported.property: pIC50

molecule	subject.of.test	reported.property	readout.value
Cc1nsc(-c2ccc(N3CCCC(c4cccc(C(F)(F)F)c4)CC3)nn2)n1 (stereo not shown)	rat aortic ring	pIC50	9.05
Cc1nsc(-c2ccc(N3CCC(Nc4cccc(C(F)(F)F)c4)C3)nn2)n1 (stereo not shown)	rat aortic ring	pIC50	9.10
Cc1nsc(-c2ccc(N3CCC(N4CCN(c5cc(Cl)cc(Cl)c5)CC4)CC3)nn2)n1	rat aortic ring	pIC50	9.70
Cc1nsc(-c2ccc(N3CC[C@@H](c4cccc(C(F)(F)F)c4)[C@@H](C)C3)nn2)n1 (relative stereo)	rat aortic ring	pIC50	9.70

###

System: rat aortic ring
Assay: Angiogenesis inhibitory activity in vitro, rat aortic ring model (microvessel formation)
Type: cell-based
Settings: 192 h, microvessel area following eight days in culture
Protocol: Angiogenosis inhibitory activity was measured in vitro using the rat aortic ring model of angiogenesis as described by Nicosia, R. F. and Ottinetti in "Laboratory Investigation", vol. 63, p. 115, 1990. The ability of compounds to inhibit microvessel formation was compared to velicle-treatedcontrol rings.
pIC50: −log10 of the molar value.
Listing of recorded pIC50 by entry.
reported.property: pIC50

molecule	reported.property	qualifier.operator	readout.value
Cc1nsc(-c2ccc(N3CCC(N4CCN(c5cccc(C(F)(F)F)c5)CC4)CC3)nn2)n1 [Compound 53]	pIC50	=	9.52
Cc1nsc(-c2ccc(N3CCC(N4CCN(c5cc(C(F)(F)F)cc(C(F)(F)F)c5)CC4)CC3)nn2)n1 [Compound 161]	pIC50	>	10.00
Cc1nsc(-c2ccc(N3CCC(C(C#N)c4cccc(Cl)c4)CC3)nn2)n1 (centres unmarked) [Compound 138]	pIC50	=	9.70
Cc1nsc(-c2ccc(N3CCN(c4cc(Cl)c(Cl)cc4Cl)CC3)nn2)n1 [Compound 82]	pIC50	=	9.10
Cc1nsc(-c2ccc(N3CCN(c4cc(Cl)ccc4Cl)CC3)nn2)n1 [Compound 27]	pIC50	=	9.70
Cc1nsc(-c2ccc(N3CCN(c4cc(C(F)(F)F)cc(C(F)(F)F)c4)CC3)nn2)n1 [Compound 74]	pIC50	=	10.30
Cc1nsc(-c2ccc(N3CC=C(c4cccc(C(F)(F)F)c4)CC3)nn2)n1 [Compound 66]	pIC50	=	9.52
Cc1nsc(-c2ccc(N3CCN(C4CCN(c5cccc(C(F)(F)F)c5)CC4)CC3)nn2)n1 [Compound 44]	pIC50	=	9.15
Cc1nsc(-c2ccc(N3CCC(Sc4cccc(Cl)c4)CC3)nn2)n1 [Compound 139]	pIC50	=	9.30
Cc1nsc(-c2ccc(N3CCC(OCc4cccc(C(F)(F)F)c4)CC3)nn2)n1 [Compound 48]	pIC50	=	9.30
Cc1nsc(-c2ccc(N3CCC(COc4cccc(Cl)c4)CC3)nn2)n1 [Compound 56]	pIC50	=	9.05
COc1ccc(Cl)c(N2CCN(c3ccc(-c4nc(C)ns4)nn3)CC2)c1 [Compound 75]	pIC50	=	9.22
Cc1nsc(-c2ccc(N3CCN(c4cccc(Cl)c4Cl)CC3)nn2)n1 [Compound 24]	pIC50	=	9.52
Cc1nsc(-c2ccc(N3CCN(c4cccc(C(F)(F)F)c4)CC3)nn2)n1 [Compound 1]	pIC50	=	9.52
Cc1nsc(-c2ccc(N3CCN(c4ccccc4C(F)(F)F)CC3)nn2)n1 [Compound 76]	pIC50	=	9.70
Cc1nsc(-c2ccc(N3CCC(C(=O)c4cccc(C(F)(F)F)c4)CC3)nn2)n1 [Compound 130]	pIC50	=	9.52
Cc1nsc(-c2ccc(N3CCC(C(=O)c4cccc(Cl)c4)CC3)nn2)n1 [Compound 135]	pIC50	=	9.30

###

tested on: angiogenesis; test: In vivo angiogenesis inhibitory activity, Matrigel model; parameters: species or system warm-blooded animal; details: po, administered orally
reported.property: inhibition in vivo at 0.1 mg/kg

molecule	reported.property	readout.value
Cc1nsc(-c2ccc(N3CCN(c4cc(Cl)c(Cl)cc4Cl)CC3)nn2)n1 [Compound 82]	inhibition in vivo at 0.1 mg/kg	> 70%
Cc1nsc(-c2ccc(N3CCC(Nc4cccc(C(F)(F)F)c4)CC3)nn2)n1 [Compound 47]	inhibition in vivo at 0.1 mg/kg	> 70%
Cc1nsc(-c2ccc(N3CCC(OC(c4ccccc4)c4ccccc4)CC3)nn2)n1 [Compound 54]	inhibition in vivo at 0.1 mg/kg	> 70%
Cc1nsc(-c2ccc(N3CCC(N4CCN(c5cccc(C(F)(F)F)c5)CC4)CC3)nn2)n1 [Compound 53]	inhibition in vivo at 0.1 mg/kg	> 70%
Cc1nsc(-c2ccc(N3CCN(c4ccc(Br)c(C(F)(F)F)c4)CC3)nn2)n1 [Compound 88]	inhibition in vivo at 0.1 mg/kg	> 70%
